Source listed as paper PMC5046105.

# SYSTEM: pWT PDZ2 K392M (human) (UniProt Q12959)
# Sequence (Q12959 311-407, change not shown): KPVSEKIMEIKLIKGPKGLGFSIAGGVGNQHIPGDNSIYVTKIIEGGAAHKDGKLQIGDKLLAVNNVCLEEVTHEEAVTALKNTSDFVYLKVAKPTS
# METHOD_SUMMARY: stopped-flow spectroscopy
Ends that are not written are not given here.
METRIC_NAME: pKd
In plain terms, pKd is the concentration in mol/L turned into minus its base-10 logarithm.

Ask: I'd like to know its pKd. The binder in question is Ac-KRKETLV [KRKETLV peptide (C-terminus of neuroepithelial cell-transforming gene 1 protein, Net1)]
Result: 6.33
